biological target: C-C chemokine receptor type 2 (Homo sapiens); format: cell membranes, CHO-K1, Membrane; settings: cho-k1; also: in other assays of this panel Not Active means under 50% inhibition at 10 µM
Sequence (P41597 whole entry): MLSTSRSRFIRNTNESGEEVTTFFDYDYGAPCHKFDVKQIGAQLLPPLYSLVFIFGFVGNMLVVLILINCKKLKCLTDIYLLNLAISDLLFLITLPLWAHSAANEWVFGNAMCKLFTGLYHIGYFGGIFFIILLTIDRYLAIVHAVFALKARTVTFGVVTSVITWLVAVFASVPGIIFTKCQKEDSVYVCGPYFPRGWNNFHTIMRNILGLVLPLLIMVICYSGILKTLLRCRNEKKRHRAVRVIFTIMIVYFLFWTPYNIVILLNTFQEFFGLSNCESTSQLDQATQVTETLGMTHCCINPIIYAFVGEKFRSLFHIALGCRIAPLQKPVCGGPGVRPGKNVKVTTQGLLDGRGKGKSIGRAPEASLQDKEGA
MEASURED_ENDPOINT: IC50

>>> test_result("CC(C)(C)NC(=O)[C@@H]1CN(Cc2cccnc2)CCN1C[C@@H](O)C[C@@H](Cc1ccccc1)C(=O)N[C@H]1c2ccccc2C[C@H]1O.O")
"Not Active"
>>> test_result("NC(=O)c1ccccc1O [SALICYLAMIDE]")
"Not Active"
>>> test_result("NC(=O)c1ncn([C@@H]2O[C@H](CO)[C@@H](O)[C@H]2O)n1")
"Not Active"
>>> test_result("CCc1ccc(C(=O)C(C)CN2CCCCC2)cc1 (stereo not drawn)")
"Not Active"
>>> test_result("CN(C)[C@@H]1C(O)=C(C(N)=O)C(=O)[C@@]2(O)C(O)=C3C(=O)c4c(O)cccc4[C@@](C)(O)[C@H]3C[C@@H]12")
"Not Active"
>>> test_result("O=C1CN=C(c2ccccc2)c2cc([N+](=O)[O-])ccc2N1")
"Not Active"
>>> test_result("CN(N=O)C(=O)N[C@@H](C=O)[C@@H](O)[C@H](O)[C@H](O)CO")
"Not Active"
>>> test_result("NNc1ccccc1 [PHENYLHYDRAZINE]")
"Not Active"
>>> test_result("CNCCC=C1c2ccccc2CCc2ccccc21")
"Not Active"
>>> test_result("Cc1ncc([N+](=O)[O-])n1CC(C)O (stereo not drawn)")
"Not Active"
>>> test_result("Oc1c(I)cc(I)c2cccnc12")
"Not Active"
>>> test_result("Brc1ccccc1")
"Not Active"
>>> test_result("CC(C)(Oc1ccc(CCNC(=O)c2ccc(Cl)cc2)cc1)C(=O)O [BEZAFIBRATE]")
"Not Active"
